FYI, the data here is from patent US20230295310A1.

# STUDY SYSTEM: T1, human CD3 expressed on cells (Jurkat cells; human primary T cells) (human, UniProt P07766 23-207; P04234 22-171; P09693 23-182)
# T1 construct: whole, on cells
# T1 sequence (P07766 23-207, chain 1 of 3): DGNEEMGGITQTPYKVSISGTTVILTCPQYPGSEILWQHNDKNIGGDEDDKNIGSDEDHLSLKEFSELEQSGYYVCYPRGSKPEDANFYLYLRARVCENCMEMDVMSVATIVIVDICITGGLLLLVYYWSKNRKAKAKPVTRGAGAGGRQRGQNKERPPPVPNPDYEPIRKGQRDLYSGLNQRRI
# T1 sequence (P04234 22-171, chain 2 of 3): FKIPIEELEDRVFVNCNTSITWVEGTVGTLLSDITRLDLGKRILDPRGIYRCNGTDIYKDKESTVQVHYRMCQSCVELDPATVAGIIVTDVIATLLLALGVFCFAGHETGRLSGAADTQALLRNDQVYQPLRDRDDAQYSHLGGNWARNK
# T1 sequence (P09693 23-182, chain 3 of 3): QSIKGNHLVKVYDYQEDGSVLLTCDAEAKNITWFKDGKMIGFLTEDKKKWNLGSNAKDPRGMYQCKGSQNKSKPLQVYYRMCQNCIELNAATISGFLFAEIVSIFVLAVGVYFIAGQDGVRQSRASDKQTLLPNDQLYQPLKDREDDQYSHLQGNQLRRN
# TEST DETAILS: flow cytometry, 25 nM, human primary T cells

# BINDER, Binding (FOI)
measured = [
    ("mAb 262 (antibody, V domains shown, VH/VL only) VH: EVRLLESGGGLVQPGGSLRLSCAASGFTFRSSSMAWVRQDPGKGLEWVTGIRGSGGRTYDADSVKGRFTISRDNSKNTLYLQMNSLRAEDTAEYYCAKLYDYYNDYMDVWGKGTTVTVSS VL: SYELTQPLSVSVALGQTARITCGGNNIGSKNVHWYQQKPGQAPVLVIYRDSNRPSGIPERFSGSNSGNTATLTISRAQAGDEADYYCQVWDSSTAVFGGGTQLTAL", "219 FOI"),
    ("mAb 222 (antibody, V domains shown, VH/VL only) VH: QVQLVESGGGVVQPGRSLRLSCAASGFTFSGYGMHWVRQAPGKGLEWVAIIYYNGKKEYYADSVKGRFTISRDNSKNTVYLQMNSLRAEDTAVYYCTRGEGYNWFDPWGQGTLVTVSS VL: KIVMTQSPATLSVSPGERATLSCRASQSVSSNLAWYQQKPGQAPRLLIYGASTRATGIPARFSGSGSGTEFTLTISSLQSEDFAVYYCKQYNNWPLTFGGGTKVEIK", "216 FOI"),
    ("mAb 196 (antibody, V domains shown, VH/VL only) VH: QEQLVESGGGVVQSGRSLRLSCVASGFKFSGYGMHWVRQAPGKGLEWVAIIYYDGKNKYYADSVKGRFTVSRDNSKNTLYLQMNSLRAEDTAVYYCTRGAGYNWFDSWGQGTLVTVSS VL: EIVMTQSPATLSVSPGERATLSCRASQSVRNNLAWYQQKPGQAPRLLIYGVSTRATAFPARFSGSGSGTEFTLTISSLQSEDFAVYYCQQYNNWPLTFGGGTKVEIK", "224 FOI"),
]
